System: L1210 leukemia ip in BDF1 mice, survival T/C
Test: NCI In Vivo Anticancer Drug Screen. Data for tumor model L1210 Leukemia (intraperitoneal) in B6D2F1 (BDF1) mice
Conditions: endpoint: mean survival time; dose: 200.0 mg/kg/injection; schedule: Q01DX001 (ip); vehicle: acetone; higher = longer survival
Inconclusive results and toxic doses are left out.
Consider the following molecules; for each one, report its T/C.

>>> result("Cc1nc2c(Cl)cc(Cl)cc2s1")
"106 % of control"
>>> result("Clc1ccc(C(c2ccc(Cl)cc2)C(Cl)(Cl)Cl)cc1")
"87 % of control"
>>> result("OCCOC1CCCC=C1Cl (centres undefined)")
"98 % of control"

input: Any idea what T/C was measured for COC(=O)C1(C)CCCC2(C)c3cc(O)c(C(C)C)cc3CCC12 (centres undefined) ?
output: 90 % of control

###

What T/C was measured for each of the following?
System: L1210 leukemia ip in BDF1 mice, survival T/C
Assay: NCI In Vivo Anticancer Drug Screen. Data for tumor model L1210 Leukemia (intraperitoneal) in B6D2F1 (BDF1) mice
Settings: endpoint: mean survival time; dose: 200.0 mg/kg/injection; schedule: Q04DX002 (ip); vehicle: Klucel (hydroxypropylcellulose) (HPC); higher = longer survival
Toxic doses and inconclusive results are not listed.

Worked examples follow.
>>> result("Cc1ccc(C)c(NC(=O)NC(C)(C)C)c1")
"102 % of control"
>>> result("O=C(Nc1cccc2ccccc12)Oc1ccc2ccccc2c1")
"93 % of control"
>>> result("O=C(/C=C\\c1ccccc1)Nc1c(Cl)cc(Cl)cc1Cl")
"107 % of control"
>>> result("CCCCCCCCCCCCCCCCCCNC(=O)NCc1ccncc1")
"123 % of control"

Batch lookup, T/C per entry.
1. CC12CCC(C1)C(C)(C)/C2=N\O (stereo not drawn)
2. CCN(CC)c1ccc(S(=O)(=O)NC(=O)OC)cc1
3. Cc1ccc(NCC(=O)NN)cc1C
4. O=C1OCC/C1=C\NCCCCCCCCN/C=C1\CCOC1=O
5. CCCCCCCCCCCCCCCCCCNC(=O)Nc1ccccc1OC
6. O=c1[nH]c2ccccc2nc1C(Cl)(Cl)Cl
7. CC1(CC(=O)O)CCCCC1CC(=O)O (stereo not drawn)
8. Cc1ccc(S(=O)(=O)NC(CCl)=NCc2ccccc2)cc1

output:
1: 96 % of control; 2: 112 % of control; 3: 98 % of control; 4: 108 % of control; 5: 107 % of control; 6: 105 % of control; 7: 103 % of control; 8: 100 % of control

input: // query T/C value for entry Cc1ccc(CNC(=O)NC(C)(C)C)cc1C
output: 111 % of control

###

System: L1210 leukemia ip in BDF1 mice, survival T/C
Test: NCI In Vivo Anticancer Drug Screen. Data for tumor model L1210 Leukemia (intraperitoneal) in B6D2F1 (BDF1) mice
Conditions: endpoint: mean survival time; dose: 100.0 mg/kg/injection; schedule: Q01DX001 (ip); vehicle: carboxymethylcellulose (CMC); higher = longer survival
Inconclusive results and toxic doses are left out.
measure: T/C

>>> result("O=C(Nc1c(Cl)c(Cl)c2c(c1Cl)Cc1cc(Cl)ccc1-2)C(Cl)Cl")
"101 % of control"
>>> result("CC(c1ccccc1)C(C(=O)O)C(=O)O (centres undefined)")
"96 % of control"
>>> result("CCOC(=O)C(C)(CCOCc1ccccc1)NC(C)=O (centres undefined)")
"96 % of control"
>>> result("BrC1(c2ccccc2)C(c2ccccc2)=C1c1ccccc1")
"94 % of control"
>>> result("O=C(/C(=C/c1cccc(Cl)c1)c1ccccc1)c1ccc(O)cc1")
"101 % of control"

Provide the reported T/C of each entry below, same order.
1. O=[N+]([O-])c1ccc(CSCc2ccccc2)cc1
2. COc1cc(OC)c2c(=O)c3ccoc3n(C)c2c1OC
3. CCc1ccc(N=Nc2ccc(NC)cc2)cc1
4. C=CC(C)NC(=S)NNC(=S)NC (centres undefined)
5. CCOC(=O)c1ccc(OC(=O)Nc2ccc(F)cc2)cc1
6. Cc1cccc(NC(=O)N(CCCl)N=O)c1
7. O=C(N/N=C/c1ccc(Cl)cc1Cl)C(O)(c1ccccc1)c1ccccc1
8. CC(Cl)CN(Cc1cc(O)c(CN(CC(C)Cl)CC(C)Cl)cc1O)CC(C)Cl (centres undefined)

output:
102 % of control
98 % of control
98 % of control
105 % of control
104 % of control
86 % of control
111 % of control
94 % of control

These measurements were taken from PubChem BioAssay AID248.
